- target-entity: human Plk4 kinase domain (aa 2-275) (Homo sapiens)
measured-attribute: IC50

See these solved cases before continuing.
Noted for COc1c(Nc2cc(C)[nH]n2)nc(Sc2ccc(S(=O)(=O)C(C)(C)c3cccc([N+](=O)[O-])c3F)cc2F)nc1N1CCNCC1 : its IC50 reads < 1000 nM

Noted for COc1c(Nc2cc(C)[nH]n2)nc(Sc2ccc(NC(C)=O)cc2)nc1N1CCC(CCN2CCCCC2)CC1 : its IC50 reads 100 to 1000 nM

Noted for CNCCN(C)c1nc(Sc2ccc(NC(=O)C3CC3)cc2)nc(Nc2cc(C)[nH]n2)c1C : its IC50 reads < 1000 nM

Noted for COc1c(Nc2cc(CC(=O)O)[nH]n2)nc(SC)nc1N1CCN(CCN(C)C)CC1 : its IC50 reads > 1000 nM

Noted for COC(=O)c1ccc(Sc2nc(Nc3cc(C)[nH]n3)c(OC)c(N3CCN(CCN(C)C)CC3)n2)cc1 : its IC50 reads < 1000 nM

Noted for COc1c(Nc2cc(C)[nH]n2)nc(Sc2ccc(NC(C)=O)cc2)nc1N1CCN(CCN2CCN(C)CC2)CC1 : its IC50 reads < 1000 nM

Further cases:
Noted for COc1c(Nc2cc(C)[nH]n2)nc(Sc2ccc(S(=O)(=O)C(C)(C)c3c(F)c(F)cc(F)c3F)cc2F)nc1N1CCC(N(C)C)CC1 : its IC50 reads < 1000 nM

Noted for COc1c(Nc2cc(C)[nH]n2)nc(Sc2ccc(S(=O)(=O)Cc3cccc([N+](=O)[O-])c3F)cc2F)nc1N1CCN(C)CC1 : its IC50 reads < 1000 nM

###

Entries with reported IC50 on human Plk4 kinase domain (aa 2-275) (Homo sapiens, UniProt O00444)
Sequence (O00444 2-275): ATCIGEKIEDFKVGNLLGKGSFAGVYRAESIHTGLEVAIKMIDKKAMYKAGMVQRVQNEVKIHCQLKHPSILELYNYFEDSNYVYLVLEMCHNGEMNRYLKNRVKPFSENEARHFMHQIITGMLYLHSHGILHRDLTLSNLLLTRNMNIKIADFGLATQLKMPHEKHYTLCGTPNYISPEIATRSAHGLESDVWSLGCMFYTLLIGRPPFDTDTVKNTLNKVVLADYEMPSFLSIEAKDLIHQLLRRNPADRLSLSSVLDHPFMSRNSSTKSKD

See these solved cases before continuing.
Measured IC50 for this entry COCC(=O)N1CCN(c2nc(Sc3ccc(NC(=O)C4CCCC4)cc3)nc(Nc3cc(C)[nH]n3)c2C)CC1 on human Plk4 kinase domain (aa 2-275) (Homo sapiens, UniProt O00444): < 1 µM

Measured IC50 for this entry COc1c(Nc2cc(C)[nH]n2)nc(Sc2ccc(S(=O)(=O)Cc3cccc([N+](=O)[O-])c3)cc2)nc1N1CCO[C@H](C)C1 on human Plk4 kinase domain (aa 2-275) (Homo sapiens, UniProt O00444): < 1 µM

Measured IC50 for this entry CCOc1c(Nc2cc(C)[nH]n2)nc(Sc2ccc(NC(=O)C3CCCC3)cc2)nc1N1CCN(CC2CC2)CC1 on human Plk4 kinase domain (aa 2-275) (Homo sapiens, UniProt O00444): 0.1 to 1 µM

Further cases:
Measured IC50 for this entry COc1c(Nc2cc(C)[nH]n2)nc(Sc2ccc(NC(=O)c3cccc([N+](=O)[O-])c3F)cc2F)nc1N1CCOCC1 on human Plk4 kinase domain (aa 2-275) (Homo sapiens, UniProt O00444): 0.1 to 1 µM

###

Entries with reported IC50 on human Plk4 kinase domain (aa 2-275) (Homo sapiens, UniProt O00444)

See these solved cases before continuing.
Measured IC50 for this entry COc1c(Nc2cc(C)[nH]n2)nc(Sc2ccc(S(=O)(=O)Cc3c(F)c(F)cc(Cl)c3F)cc2F)nc1N1CCN(CCN(C)C)CC1 on human Plk4 kinase domain (aa 2-275) (Homo sapiens, UniProt O00444): < 1000 nM

Measured IC50 for this entry COc1c(Nc2cc(C)[nH]n2)nc(Sc2ccc(S(=O)(=O)Cc3ccc(F)cc3)cc2)nc1N1CCN(CCN(C)C)CC1 on human Plk4 kinase domain (aa 2-275) (Homo sapiens, UniProt O00444): < 1000 nM

Measured IC50 for this entry CCS(=O)(=O)c1ccc(Sc2nc(Nc3cc(C)[nH]n3)c(OC)c(N3CCNCC3)n2)cc1 on human Plk4 kinase domain (aa 2-275) (Homo sapiens, UniProt O00444): < 1000 nM

Measured IC50 for this entry COCC(=O)N1CCN(c2nc(Sc3ccc(NC(C)=O)cc3)nc(Nc3cc(C)[nH]n3)c2OC)CC1 on human Plk4 kinase domain (aa 2-275) (Homo sapiens, UniProt O00444): < 1000 nM

Measured IC50 for this entry CCOc1c(Nc2cc(C)[nH]n2)nc(Sc2ccc(NC(C)=O)cc2)nc1N(CC)CC on human Plk4 kinase domain (aa 2-275) (Homo sapiens, UniProt O00444): 100 to 1000 nM

Measured IC50 for this entry COC(=O)Cc1cc(Nc2nc(SC)nc(N3CCN(CCN(C)C)CC3)c2OC)n[nH]1 on human Plk4 kinase domain (aa 2-275) (Homo sapiens, UniProt O00444): > 1000 nM

Further cases:
Measured IC50 for this entry COc1c(Nc2cc(C)[nH]n2)nc(Sc2ccc(NC(=O)C3CC3)cc2)nc1N1CCOCC1 on human Plk4 kinase domain (aa 2-275) (Homo sapiens, UniProt O00444): < 1000 nM

Measured IC50 for this entry COc1c(Nc2cc(C)[nH]n2)nc(Sc2ccc(NC(C)=O)cc2)nc1N1CCOC[C@H]1C on human Plk4 kinase domain (aa 2-275) (Homo sapiens, UniProt O00444): < 1000 nM

Measured IC50 for this entry CCOc1c(Nc2cc(C)[nH]n2)nc(Sc2ccc(NC(=O)C3CCCC3)cc2)nc1N1CCN(C(=O)CCOC)CC1 on human Plk4 kinase domain (aa 2-275) (Homo sapiens, UniProt O00444): 100 to 1000 nM

Measured IC50 for this entry Cc1ccc(Sc2nc(Nc3cc(C)[nH]n3)c(C)c(N3CCOCC3)n2)cc1 on human Plk4 kinase domain (aa 2-275) (Homo sapiens, UniProt O00444): < 1000 nM

Measured IC50 for this entry COC(=O)c1ccccc1CS(=O)(=O)c1ccc(Sc2nc(Nc3cc(C)[nH]n3)c(OC)c(N3CCN(CCN(C)C)CC3)n2)cc1 on human Plk4 kinase domain (aa 2-275) (Homo sapiens, UniProt O00444): < 1000 nM

Measured IC50 for this entry COc1c(Nc2cc(C)[nH]n2)nc(Sc2ccc(S(=O)(=O)Cc3cccc([N+](=O)[O-])c3)cc2)nc1N1CCOCC1 on human Plk4 kinase domain (aa 2-275) (Homo sapiens, UniProt O00444): < 1000 nM

###

Entries with reported IC50 on human Plk4 kinase domain (aa 2-275) (Homo sapiens, UniProt O00444)

Measured IC50 for this entry COc1c(Nc2cc(C)[nH]n2)nc(Sc2ccc(S(=O)(=O)Cc3ccccc3)cc2)nc1N1CCN(CCN(C)C)CC1 on human Plk4 kinase domain (aa 2-275) (Homo sapiens, UniProt O00444): < 1000 nM

Measured IC50 for this entry COc1cccc(CS(=O)(=O)c2ccc(Sc3nc(Nc4cc(C)[nH]n4)c(OC)c(N4CCN(CCN(C)C)CC4)n3)cc2)c1 on human Plk4 kinase domain (aa 2-275) (Homo sapiens, UniProt O00444): < 1000 nM

Further cases:
Measured IC50 for this entry COc1c(Nc2cc(C)[nH]n2)nc(Sc2ccc(NC(C)=O)cc2)nc1N1CCN(CCN2C3CCCC2CCC3)CC1 on human Plk4 kinase domain (aa 2-275) (Homo sapiens, UniProt O00444): < 1000 nM

Measured IC50 for this entry COc1c(Nc2cc(C)[nH]n2)nc(Sc2ccc(S(=O)(=O)C(C)(C)c3cccc([N+](=O)[O-])c3F)cc2F)nc1N1CC[C@@H](N(C)C)C1 on human Plk4 kinase domain (aa 2-275) (Homo sapiens, UniProt O00444): < 1000 nM

Measured IC50 for this entry CC(=O)Nc1ccc(Sc2nc(Nc3cc(C)[nH]n3)cc(C3CCN(CCN(C)C)CC3)n2)cc1 on human Plk4 kinase domain (aa 2-275) (Homo sapiens, UniProt O00444): 100 to 1000 nM

Measured IC50 for this entry Cc1cc(Nc2nc(Sc3ccc(N)cc3)nc(N(C)C(C)C)c2C)n[nH]1 on human Plk4 kinase domain (aa 2-275) (Homo sapiens, UniProt O00444): < 1000 nM

Measured IC50 for this entry CCS(=O)(=O)c1ccc(Sc2nc(Nc3cc(C)[nH]n3)c(OC)c(N3CCN(CCN4CCN(C)CC4)CC3)n2)cc1 on human Plk4 kinase domain (aa 2-275) (Homo sapiens, UniProt O00444): < 1000 nM

Measured IC50 for this entry CCOc1c(Nc2cc(C)[nH]n2)nc(Sc2ccc(NC(=O)C3CC3)cc2)nc1N1CCN(C(=O)COC)CC1 on human Plk4 kinase domain (aa 2-275) (Homo sapiens, UniProt O00444): 100 to 1000 nM

###

- target-entity: human Plk4 kinase domain (aa 2-275) (Homo sapiens, UniProt O00444)
- Construct: purified 6×His-tagged human Plk4 kinase domain (aa 2-275); 6xHis; made in house; host or cells: E. coli
- experiment: Plk4 kinase assay (ADP-Glo)
- Assay type: biochemical
- experimental-parameters: Table 1
measured-attribute: IC50

See these solved cases before continuing.
Noted for COc1c(Nc2cc(C)[nH]n2)nc(Sc2ccc(NC(C)=O)cc2)nc1N1CC=C(F)CC1 : its IC50 reads < 1000 nM

Noted for COc1c(Nc2cc(C)[nH]n2)nc(Sc2ccc(NC(=O)C3CC3)cc2)nc1N1CCN(C2CCN(C)CC2)CC1 : its IC50 reads < 1000 nM

Noted for CCS(=O)(=O)c1ccc(Sc2nc(Nc3cc(C)[nH]n3)c(OC)c(N3CCN(CCN(C)C)CC3)n2)c(F)c1 : its IC50 reads < 1000 nM

Noted for COc1c(Nc2cc(C)[nH]n2)nc(Sc2ccc(NC(=O)C3CC3)cc2)nc1N1CCN(C(C)=O)CC1 : its IC50 reads < 1000 nM

Noted for COc1c(Nc2cc(C)[nH]n2)nc(Sc2ccc(S(=O)(=O)Cc3cccc(N(C)C)c3)cc2)nc1N1CCN(CCN(C)C)CC1 : its IC50 reads < 1000 nM

Noted for CC(=O)Nc1ccc(Sc2nc(Nc3cc(C)[nH]n3)c(C)c(N3CCC(C)(O)CC3)n2)cc1 : its IC50 reads < 1000 nM

Okay, next one:
Noted for COc1c(Nc2cc(C)[nH]n2)nc(Sc2ccc(NC(C)=O)cc2)nc1N1CC2CCC(C1)N2CCN1CCCCCCC1 : its IC50 reads < 1000 nM
